These data points were gathered from ChEMBL document CHEMBL1961873.

biological target: Serine/threonine-protein kinase SIK2 (Homo sapiens) (UniProt Q9H0K1); details: at 0.1 µM
Sequence (Q9H0K1 whole entry, looked up): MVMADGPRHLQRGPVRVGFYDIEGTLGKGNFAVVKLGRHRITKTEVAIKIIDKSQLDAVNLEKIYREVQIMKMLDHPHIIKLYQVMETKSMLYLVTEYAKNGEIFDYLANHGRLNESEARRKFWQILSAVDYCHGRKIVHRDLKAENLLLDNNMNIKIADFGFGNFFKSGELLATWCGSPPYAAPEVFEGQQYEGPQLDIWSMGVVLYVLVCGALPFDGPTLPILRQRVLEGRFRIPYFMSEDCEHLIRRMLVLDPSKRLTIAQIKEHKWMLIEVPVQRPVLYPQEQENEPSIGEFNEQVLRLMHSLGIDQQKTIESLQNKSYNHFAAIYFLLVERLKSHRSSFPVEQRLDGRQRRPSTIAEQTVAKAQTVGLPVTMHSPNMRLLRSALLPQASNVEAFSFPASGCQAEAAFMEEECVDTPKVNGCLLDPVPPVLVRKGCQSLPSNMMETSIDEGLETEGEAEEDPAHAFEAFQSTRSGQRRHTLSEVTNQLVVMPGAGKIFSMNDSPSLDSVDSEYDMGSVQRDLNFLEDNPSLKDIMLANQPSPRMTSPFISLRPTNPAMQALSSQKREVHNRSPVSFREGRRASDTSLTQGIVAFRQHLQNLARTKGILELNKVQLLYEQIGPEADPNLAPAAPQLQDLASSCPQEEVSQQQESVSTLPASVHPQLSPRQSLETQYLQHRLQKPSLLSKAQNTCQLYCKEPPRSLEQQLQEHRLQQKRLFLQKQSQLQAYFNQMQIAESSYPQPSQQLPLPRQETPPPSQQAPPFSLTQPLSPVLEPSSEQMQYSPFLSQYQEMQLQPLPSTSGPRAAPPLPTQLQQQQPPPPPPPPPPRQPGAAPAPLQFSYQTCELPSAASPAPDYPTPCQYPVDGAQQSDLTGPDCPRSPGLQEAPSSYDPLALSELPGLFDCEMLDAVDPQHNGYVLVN
Description: GSK_PKIS: SNF1LK2 (QIK) mean inhibition at 0.1 uM [Nanosyn]
inhibition reference
Kindly provide the numeric value in % only, without the unit symbol.

Here is how some compounds turned out for inhibition.
compound | inhibition [%]
COc1ccc2ncn(-c3cc(O[C@H](C)c4ccccc4Cl)c(C(N)=O)s3)c2c1 | 2.04
NC(=O)Cc1ccccc1Oc1nccc(-c2c(-c3ccc(F)cc3)ncn2C2CCNCC2)n1 | 3.81
NS(=O)(=O)c1ccc(N/N=C2\C(=O)Nc3ccc(-c4cnco4)cc32)cc1 | -1.16
c1ccc(Oc2ccc(Nc3ncc(-c4ccccc4)o3)cc2)cc1 | 1.87
NCc1ccc(-n2c(-c3nonc3N)nc3cnccc32)cc1 | 5.87
COC(=O)Nc1nc2ccc(Sc3ccc(NC(=O)Nc4cc(C(F)(F)F)ccc4F)cc3)cc2[nH]1 | 4.86
CN1CCN(CCCNc2nc3ccc(Oc4ccc(NC(=O)Nc5cc(C(F)(F)F)ccc5F)cc4)cc3[nH]2)CC1 | -2.3
Cc1ccc(C(=O)NC2CCC2)cc1-c1ccc(C(=O)NCC2CC2)cc1 | 1.33

Please find the next compound below.
inhibition in this record for COc1cc2ncn(-c3cc(OCc4ccccc4C(F)(F)F)c(C(C)=O)s3)c2cc1OC : -0.99

* * *

biological target: Receptor-type tyrosine-protein kinase FLT3 (Homo sapiens) (UniProt P36888); details: at 0.1 µM
Sequence (P36888 whole entry): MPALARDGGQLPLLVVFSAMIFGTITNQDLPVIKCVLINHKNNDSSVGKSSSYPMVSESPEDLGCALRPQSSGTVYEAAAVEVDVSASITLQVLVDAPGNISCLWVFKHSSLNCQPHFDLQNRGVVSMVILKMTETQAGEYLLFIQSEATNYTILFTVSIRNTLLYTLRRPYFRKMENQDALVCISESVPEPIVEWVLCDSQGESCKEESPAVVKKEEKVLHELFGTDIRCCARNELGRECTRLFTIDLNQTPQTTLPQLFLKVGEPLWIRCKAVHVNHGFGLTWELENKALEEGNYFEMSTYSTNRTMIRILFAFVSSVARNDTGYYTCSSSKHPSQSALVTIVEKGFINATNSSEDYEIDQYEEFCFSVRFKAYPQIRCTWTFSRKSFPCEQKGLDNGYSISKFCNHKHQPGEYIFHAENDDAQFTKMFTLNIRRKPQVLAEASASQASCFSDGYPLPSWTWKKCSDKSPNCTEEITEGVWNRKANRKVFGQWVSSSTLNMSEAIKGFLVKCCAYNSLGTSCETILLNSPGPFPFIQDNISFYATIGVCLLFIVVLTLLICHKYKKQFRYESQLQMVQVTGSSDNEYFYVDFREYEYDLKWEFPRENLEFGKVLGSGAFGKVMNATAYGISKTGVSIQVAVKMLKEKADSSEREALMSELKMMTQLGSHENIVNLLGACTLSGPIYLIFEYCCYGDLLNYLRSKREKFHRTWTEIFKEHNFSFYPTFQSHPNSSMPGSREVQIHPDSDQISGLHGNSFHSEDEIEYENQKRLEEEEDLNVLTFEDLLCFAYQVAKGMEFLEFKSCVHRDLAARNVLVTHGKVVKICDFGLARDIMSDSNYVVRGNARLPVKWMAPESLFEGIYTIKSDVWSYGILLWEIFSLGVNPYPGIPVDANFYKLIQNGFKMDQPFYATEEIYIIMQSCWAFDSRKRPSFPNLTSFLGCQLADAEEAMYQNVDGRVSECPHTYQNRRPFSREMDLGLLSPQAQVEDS
inhibition reference
Kindly provide the numeric value in % only, without the unit symbol.

Here is how some molecules turned out for inhibition.
molecule | test_readout | observed
COc1ccc2cc(-c3c(-c4ccncc4)nc(-c4ccc(S(C)(=O)=O)cc4C)n3C)ccc2c1 | inhibition | 1.65
O=C(Nc1ccc(Oc2ccc3[nH]c(NC(=O)c4ccccc4)nc3c2)cc1)Nc1cc(C(F)(F)F)ccc1F | inhibition | 6.63

inhibition in this record for CCc1nccc2c1nc(-c1nonc1N)n2CC : -0.04

inhibition in this record for COc1ccc2cc(-c3c(-c4ccncc4)nc(-c4ccc([S+](C)[O-])cc4C)n3C)ccc2c1 (centres undefined) : -0.09

inhibition in this record for Fc1ccc(-c2ncn(C3CCNCC3)c2-c2ccnc(Oc3ccc4c(c3)OCO4)n2)cc1 : 4.05

inhibition in this record for CCc1ccc(Oc2nccc(-c3c(-c4ccc(F)cc4)ncn3C3CCNCC3)n2)cc1 : 5.16

inhibition in this record for COc1cc(Nc2ncc3c(C)nc(-c4cccc(Oc5ccccc5)c4)n3n2)cc(OC)c1OC : 3.86

inhibition in this record for NC(=O)c1ccc(Oc2nccc(-c3c(-c4ccc(F)cc4)ncn3C3CCNCC3)n2)cc1 : 2.76

inhibition in this record for C/C(Nc1ccc(S(N)(=O)=O)cc1)=C1/C(=O)Nc2ccccc21 : 13.9

* * *

biological target: Receptor-type tyrosine-protein kinase FLT3 (Homo sapiens); settings: at 0.1 µM;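 further: mean inhibition value from the GSK PKIS kinase screening set, with the assay run by Nanosyn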
inhibition reference
Respond with the figure and its unit, in that order.

Here is how some molecules turned out for inhibition.
compound | test_readout | observed
NCc1ccc(-n2c(-c3nonc3N)nc3cnccc32)cc1 | inhibition | 1.23%
COc1ccc(C2=C(N3CCc4ccccc43)C(=O)NC2=O)cc1 | inhibition | 3.27%
COC(=O)Nc1nc2ccc(Sc3ccc(NC(=O)Nc4cc(C(F)(F)F)ccc4F)cc3)cc2[nH]1 | inhibition | 4.87%
CCN(CC)Cc1ccc(Nc2nccc(-c3cnn4ncccc34)n2)cc1 | inhibition | 7.95%

Please find the next molecule below.
inhibition value, target or system Receptor-type tyrosine-protein kinase FLT3 (Homo sapiens), for CCS(=O)(=O)c1ccc(OC)c(Nc2ncc(-c3ccccc3Cl)o2)c1 : 2.1%

* * *

molecular target: Protein kinase C beta type (Homo sapiens); settings: at 1 µM;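 further: mean inhibition value, enzyme form tested was the PKC-beta1 splice variant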
Description: GSK_PKIS: PKC-beta1 (splice variant) mean inhibition at 1 uM [Nanosyn]
inhibition reference
Kindly provide the numeric value in % only, without the unit symbol.

Here is how some compounds turned out for inhibition.
compound | system_under_test | test_readout | unit | observed
COc1cc(C)c(N(C)C(=O)CN(C)C)cc1Nc1nc(Nc2cccc(F)c2C(N)=O)c2cc[nH]c2n1 | Protein kinase C beta type (Homo sapiens) | inhibition | % | -0.89
CS(=O)(=O)CCNCc1ccc(-c2ccc3ncnc(Nc4ccc(OCc5ccccc5)c(Br)c4)c3c2)o1 | Protein kinase C beta type (Homo sapiens) | inhibition | % | -0.59
CCc1cccc(CC)c1/C=C/c1cncc(C(=O)NC)c1 | Protein kinase C beta type (Homo sapiens) | inhibition | % | 0.32
CN1CCN(CCCNc2nc3ccc(Oc4ccc(NC(=O)Nc5cc(C(F)(F)F)ccc5F)cc4)cc3[nH]2)CC1 | Protein kinase C beta type (Homo sapiens) | inhibition | % | 1.42
FC(F)(F)c1cccc(Nc2nccc(-c3cnn4nc(-c5ccccc5)ccc34)n2)c1 | Protein kinase C beta type (Homo sapiens) | inhibition | % | 2.15

inhibition in this record for CS(=O)(=O)CCNCc1cc(-c2cc3c(Nc4ccc(OCc5cccc(F)c5)c(Cl)c4)ncnc3s2)cs1 : 1.19

inhibition in this record for CCC(=O)Nc1ccc(C)c(-c2ccc(C(=O)NCC3CC3)cc2)c1 : -0.89

inhibition in this record for Cc1ccc(C(=O)NC(C)C)cc1-c1ccc(C(=O)NCC2CC2)cc1 : -0.82

* * *

system: Tyrosine-protein kinase ABL1 (Homo sapiens), P00519 [Q252H]; details: at 1 µM
Classify as follows. Reported inhibition greater than or equal to 8%: MET. Reported inhibition below: NOT MET.

Study these solved cases before continuing.
compound | class_name
O=C(Nc1n[nH]c2nc(-c3ccc(O)cc3)c(Br)cc12)C1CC1 | MET
NC(=O)c1ccc(Oc2nccc(-c3c(-c4ccc(F)cc4)ncn3C3CCNCC3)n2)cc1 | NOT MET
CS(=O)(=O)CCNCc1ccc(-c2ccc3ncnc(Nc4ccc(OCc5ccccc5)c(Br)c4)c3c2)o1 | NOT MET

**Query** Check this compound for inhibition at or above 8%: C[C@@H](Oc1cc(-n2cnc3ccc(OCC4CCN(C)CC4)cc32)sc1C(N)=O)c1ccccc1Cl
**Result** MET

**Query** Check this compound for inhibition at or above 8%: COc1cc(Nc2ncc3c(C)nc(-c4cccc(Oc5ccccc5)c4)n3n2)cc(OC)c1OC
**Result** NOT MET

**Query** Check this compound for inhibition at or above 8%: COc1ccc(-c2ccc3c(NC(=O)C4CC4)n[nH]c3n2)cc1
**Result** MET

**Query** Check this compound for inhibition at or above 8%: COc1cccc(/C=N/Nc2ncnc3c2cnn3-c2cccc(OC)c2)c1
**Result** MET

* * *

target: Tyrosine-protein kinase Yes (Homo sapiens) (UniProt P07947); details: at 1 µM;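 further: values are mean percent inhibition of YES kinase activity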
Sequence (P07947 2-543 limits assumed): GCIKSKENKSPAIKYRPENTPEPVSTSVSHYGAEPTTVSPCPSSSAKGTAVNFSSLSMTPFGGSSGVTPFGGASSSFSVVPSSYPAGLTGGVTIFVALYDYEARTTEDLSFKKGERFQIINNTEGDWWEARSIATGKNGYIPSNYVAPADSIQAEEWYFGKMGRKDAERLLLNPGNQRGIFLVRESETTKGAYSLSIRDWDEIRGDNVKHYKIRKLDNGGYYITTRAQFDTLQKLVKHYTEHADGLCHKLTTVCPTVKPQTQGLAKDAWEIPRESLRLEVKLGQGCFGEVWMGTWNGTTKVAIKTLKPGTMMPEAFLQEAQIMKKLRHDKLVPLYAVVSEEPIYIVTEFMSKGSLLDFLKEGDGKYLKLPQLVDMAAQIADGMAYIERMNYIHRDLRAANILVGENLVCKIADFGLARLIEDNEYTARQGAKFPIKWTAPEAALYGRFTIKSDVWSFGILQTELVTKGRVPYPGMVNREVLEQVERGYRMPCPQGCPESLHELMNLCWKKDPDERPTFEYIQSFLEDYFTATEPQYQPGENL
inhibition reference
Kindly provide the numeric value in % only, without the unit symbol.

molecule | unit | observed
NS(=O)(=O)c1ccc(N/N=C2\C(=O)Nc3ccc(C(=O)NCCCn4ccnc4)cc32)cc1 | % | 24.1
CCc1nccc2c1nc(-c1nonc1N)n2CC | % | 1.95
CN1CCN(CCCNc2nc3ccc(Oc4ccc(NC(=O)Nc5cc(C(F)(F)F)ccc5F)cc4)cc3[nH]2)CC1 | % | -1.74
O=C(Nc1n[nH]c2nc(-c3ccco3)ccc12)C1CC1 | % | 0.02
NC(=O)c1cc(-c2ccc(F)cc2)cc(-c2ccncc2)c1N | % | 8.03

inhibition in this record for Cc1ccc(NC(=O)c2ccoc2)cc1-c1ccc(C(=O)NCC2CC2)cc1 : 1.5

inhibition in this record for O=C(Nc1ccc(Oc2ccc3[nH]c(NC(=O)c4ccccc4)nc3c2)cc1)Nc1cc(C(F)(F)F)ccc1F : 7.23

inhibition in this record for CCS(=O)(=O)c1ccc(OC)c(Nc2ncc(-c3ccccc3Cl)o2)c1 : 39.3

inhibition in this record for O=C(Nc1n[nH]c2cc(-c3ccccc3)ccc12)C1CC1 : 5.44

inhibition in this record for CN(c1ccc(NC(=O)Nc2c(Cl)cccc2Cl)cc1)c1ccnc(Nc2cccc(CS(C)(=O)=O)c2)n1 : 28.2

inhibition in this record for Cc1ccc(C(=O)NC2CCC2)cc1-c1ccc(C(=O)NCC2CC2)cc1 : 0.45

inhibition in this record for O=C(Nc1n[nH]c2nc(-c3ccc(O)cc3)c(Br)cc12)C1CC1 : 27.4

inhibition in this record for CCc1cccc(CC)c1/C=C/c1cncc(C(=O)NC)c1 : -1.48

* * *

Target: Tyrosine-protein kinase receptor TYRO3 (Homo sapiens);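 further: reported percentages are averaged inhibition values of TYRO3 kinase activity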
Sequence (whole entry): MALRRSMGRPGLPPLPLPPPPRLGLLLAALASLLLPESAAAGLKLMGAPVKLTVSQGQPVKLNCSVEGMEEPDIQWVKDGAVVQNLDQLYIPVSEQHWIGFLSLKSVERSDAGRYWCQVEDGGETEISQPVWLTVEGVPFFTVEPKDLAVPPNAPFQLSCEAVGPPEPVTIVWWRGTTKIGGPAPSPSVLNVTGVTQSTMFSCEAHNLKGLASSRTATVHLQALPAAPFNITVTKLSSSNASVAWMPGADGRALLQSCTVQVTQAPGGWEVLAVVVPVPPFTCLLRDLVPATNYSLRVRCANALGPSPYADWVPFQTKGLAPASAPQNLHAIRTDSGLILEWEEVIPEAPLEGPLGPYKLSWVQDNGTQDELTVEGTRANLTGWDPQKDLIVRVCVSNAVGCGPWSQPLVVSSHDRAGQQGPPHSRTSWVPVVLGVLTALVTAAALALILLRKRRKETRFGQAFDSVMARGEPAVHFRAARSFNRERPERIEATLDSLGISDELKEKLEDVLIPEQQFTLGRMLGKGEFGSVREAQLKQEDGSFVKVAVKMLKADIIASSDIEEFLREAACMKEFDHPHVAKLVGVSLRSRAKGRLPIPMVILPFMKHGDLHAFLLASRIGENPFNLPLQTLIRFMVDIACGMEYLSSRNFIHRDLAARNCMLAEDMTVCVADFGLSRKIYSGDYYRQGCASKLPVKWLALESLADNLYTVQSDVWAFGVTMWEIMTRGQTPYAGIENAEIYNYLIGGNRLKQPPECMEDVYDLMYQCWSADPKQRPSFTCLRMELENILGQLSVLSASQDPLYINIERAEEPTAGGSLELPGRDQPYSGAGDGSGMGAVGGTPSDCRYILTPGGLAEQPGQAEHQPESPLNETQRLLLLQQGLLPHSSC
Conditions: at 0.1 µM
test_readout: inhibition (%)
Kindly provide the numeric value in % only, without the unit symbol.

inhibition in this record for FC(F)(F)c1cccc(Nc2nccc(-c3cnn4nc(-c5ccccc5)ccc34)n2)c1 : -0.57

inhibition in this record for COc1cc(Nc2ncc(-c3ccccc3)o2)cc(OC)c1OC : -1.23
